# Tested on: T-47D breast
# test description: NCI-60 one-dose screen, 48 h (100 = growth as untreated, 0 = no growth, -100 = all killed)
# applied conditions: 10 µM unless noted
Compounds without any hit were thinned out: in the full panel of roughly 83,000, 20% have a hit.
Rule: growth below 70% gives MET. Equal to or above 70% gives NOT MET.

compound=CN(C)C1CCN(Cc2ccc(NC(=O)c3cncc(C#Cc4cnc(N)c5ncccc45)c3)cc2C(F)(F)F)CC1 answer_label="NOT MET"
compound=Cc1ccc(/C=N/Nc2nc(Nc3ccccc3)nc(-n3nc(C)cc3C)n2)cc1 answer_label=MET
compound=CO/N=C(/C)c1ccc(NC(=O)CSc2nnc(-c3ccncc3)n2-c2ccccc2)cc1 answer_label=MET
compound=Clc1ccc(Sc2cnc(-c3ccccc3)o2)cc1 answer_label="NOT MET"
compound=CCn1c(=S)sc2c(Nc3ccc(F)cc3)nc(-c3cccnc3)nc21 answer_label=MET
compound=O=C1/C(=C/c2ccccc2Br)COc2ccc(O)c(O)c21 answer_label=MET
compound=CC(=O)Nc1nc2ccc(NS(=O)(=O)c3cccc4c(N(C)C)cccc34)cc2[nH]1 answer_label="NOT MET"
compound=Cc1c(-c2nc3ccc(F)cc3c(=O)[nH]2)c2ccccc2n1C answer_label=MET
compound=Cc1ccccc1NC(=O)c1sc2nc(C)c(C(=O)/C=C/c3ccccc3)cc2c1N answer_label=MET
compound=CCOC(=O)c1cc(C(=O)c2cc(OC)c(OC)c(OC)c2)n2ccc(-c3ccncc3)cc12 answer_label="NOT MET"
compound=CCOc1nc(-c2ccccc2)cc2c(O)c(C(=O)NN)[nH]c(=O)c12 answer_label="NOT MET"
compound=COc1ccc(-c2nc(/C=C3\SC(=NCc4ccccc4)NC3=O)c3ccccn23)cc1 answer_label=MET
compound=Brc1ccc(-n2cc(-c3nn[nH]n3)c(-c3cccs3)n2)cc1 answer_label="NOT MET"
compound=O=C1c2cccc(NCCN=Cc3cc(O)ccc3O)c2C(=O)c2c(NCCN=Cc3cc(O)ccc3O)cccc21 answer_label=MET
compound=C=C(C)[C@@H]1CC[C@]2(C(=O)OC)CC[C@]3(C)[C@H](CC[C@@H]4[C@@]5(C)C/C(=C/NC(N)=S)C(=O)C(C)(C)[C@@H]5CC[C@]43C)[C@@H]12 answer_label=MET
compound=COCCn1cc(-c2nc(-c3cc4cccnc4n3CCOC)cs2)c2cc(OC)ccc21 answer_label=MET
compound=N#Cc1c(-c2ccccc2)cc(-c2ccccc2)n(CCCCCC(=O)Nc2ccccc2N)c1=O answer_label=MET
compound="CCOC(=O)CNP(=O)(OC[C@@H](Cc1ccccc1)NC(=O)c1cc2ccccc2s1)Oc1ccccc1 (stereo not given in full)" answer_label=MET
compound="N#CC1=C(N)Oc2c(sc3c(Br)cccc23)C1c1ccc(F)cc1 (stereo not given)" answer_label=MET

----------
# Test system: TK-10 renal
# test description: NCI-60 one-dose screen, 48 h (100 = growth as untreated, 0 = no growth, -100 = all killed)
# applied conditions: 10 µM unless noted
This is part of a sample that, as a whole, favours compounds with a hit. Of some 83,000 tested, about 20% had one in any assay. Active and inactive are the calls of the source. Rule for the calls: active = growth percent below 10; inactive = the rest.
Listed here: items and their measured growth.
observation type: growth

compound=CCOC(=O)c1nc(Nc2ccc(NC(=O)Nc3ccc(F)cc3)cc2)c2ccccc2n1 observation_type=growth recorded_measurement="120% (inactive)"
compound=O=C(CCCCCCN1CC(=O)N2[C@H](c3cc(Br)cs3)c3[nH]c4ccccc4c3C[C@H]2C1=O)NO observation_type=growth recorded_measurement="32% (inactive)"
compound=COc1cccc(/C=C/C(=O)c2cc3c(N)c(C(=O)Nc4ccccc4)sc3nc2C)c1 observation_type=growth recorded_measurement="40.1% (inactive)"
compound=O=C(CSc1nnc2n1S(=O)(=O)c1ccccc1N2c1ccccc1)Nc1nc2ccc(F)cc2s1 observation_type=growth recorded_measurement="125% (inactive)"
compound=OCc1cccc(-c2ccc3ncc(-c4nc(NC5CC5)ncc4F)n3c2)c1 observation_type=growth recorded_measurement="13.5% (inactive)"
compound=Cc1cc2c([nH]1)CSc1cc(S(=O)(=O)c3ccccc3)c(=O)[nH]c1-2 observation_type=growth recorded_measurement="26.5% [100 µM] (inactive)"
compound=N#Cc1c(-c2cccs2)cc(-c2cccnc2)[nH]c1=O observation_type=growth recorded_measurement="109% (inactive)"
compound="CCCCCCCCCCCCCCCC(N)c1ccccc1 (centres undefined)" observation_type=growth recorded_measurement="52.2% (inactive)"
compound=O=C(CSc1nc2sc3c(c2c(=O)n1-c1ccccc1)CCCCC3)N/N=C/c1ccc(F)cc1 observation_type=growth recorded_measurement="69.1% (inactive)"
compound=Cn1ccnc1C(=O)C(=O)Nc1ccc(CC(=O)Nc2ccccc2)cc1 observation_type=growth recorded_measurement="116% (inactive)"
compound="CCOC(=O)CNP(=O)(OC[C@@H](Cc1ccccc1)NC(=O)c1cc2ccccc2s1)Oc1ccccc1 (some centres undefined)" observation_type=growth recorded_measurement="109% (inactive)"
compound=C=C(C)[C@@H]1CC[C@]2(C(=O)N3CCN(C)CC3)CC[C@]3(C)[C@H](CC[C@@H]4[C@@]5(C)CC(=C/c6ccncc6)/C(=N/O)C(C)(C)[C@@H]5CC[C@]43C)[C@@H]12 observation_type=growth recorded_measurement="85.2% (inactive)"
compound="O=C1CNC(c2ccccc2)C(c2ccccc2)N1 (centres undefined)" observation_type=growth recorded_measurement="103% (inactive)"
compound=CCCCC[C@@H]1Cc2cc(O)c(C(=O)O)c3c2[C@H](C[C@]2(OC[C@@H](CC(=O)[C@@](C)(CC)C(=O)OC)[C@@H]2C)O3)O1 observation_type=growth recorded_measurement="109% (inactive)"
compound=COc1ccc2nc3ccc(OC)cc3c(SCCCN)c2c1 observation_type=growth recorded_measurement="114% (inactive)"
compound=CCOc1nc(-c2ccccc2)cc2c(O)c(C(=O)NN)[nH]c(=O)c12 observation_type=growth recorded_measurement="120% (inactive)"
compound="CNc1nc(S(=O)c2ccc(C#N)cc2)nc2ccccc12 (centres undefined)" observation_type=growth recorded_measurement="109% (inactive)"
compound=O=C(OCc1ccc2c(Cl)cc(Cl)c(O)c2n1)n1cncn1 observation_type=growth recorded_measurement="61.7% (inactive)"
compound=O=C(/C=C/c1ccc(Cl)cc1)c1cccc(Nc2nc(Nc3ccccc3)nc(Nc3ccccc3)n2)c1 observation_type=growth recorded_measurement="92.6% (inactive)"

Where do these numbers come from? They come from PubChem BioAssay (NCI).
